Measurement Notes: pKa of BBPh
Format: physicochemical
Measured Property: pKa

INSERT INTO results (compound, test_result) VALUES
  ('CCCCNc1nnc(NCCCC)c2cc3ccccc3cc12 [BBPh, 1,4-bis(n-butylamino)benzo[g]phthalazine]', 8.6);

###

Measurement Notes: 50 per 100 lethal dose (LD50) of BBPh and toxicity in mice
Assay type: in vivo
Applied Conditions: mouse, in vivo, ip; BBPh, DMSO as solvent
Measured Property: LD50 (mg/kg)

INSERT INTO measurements (compound, measured_property, test_result) VALUES
  ('CCCCNc1nnc(NCCCC)c2cc3ccccc3cc12 [BBPh, 1,4-bis(n-butylamino)benzo[g]phthalazine]', 'LD50', 12);
